Consider the following compounds and their measured log10(IC50) readings.
Molecular target: Amine oxidase [flavin-containing] A (Homo sapiens)
Experiment: Inhibition of human MAO-A using kynuramine as substrate by fluorometric assay
Base-10 log of IC50, unit nM.

Query: # get_value(readout='log10(IC50)', item= C=CCN1C(=O)S/C(=C\c2ccc(N3CCN(c4ccccc4)CC3)cc2)C1=O )
Result: 3.76

Query: # get_value(readout='log10(IC50)', item= CCOc1ccccc1N1CCN(c2ccc(/C=C3\SC(=O)NC3=O)cc2)CC1 )
Result: 3.13

Query: # get_value(readout='log10(IC50)', item= CCOc1ccccc1N1CCN(c2ccc(/C=C3\SC(=O)N(Cc4ccccc4)C3=O)cc2)CC1 )
Result: 2.70

Query: # get_value(readout='log10(IC50)', item= O=C1NC(=O)/C(=C/c2ccc(N3CCN(c4ccc(F)cc4)CC3)cc2)S1 )
Result: 3.40

Query: # get_value(readout='log10(IC50)', item= C#CCN1C(=O)S/C(=C\c2ccc(N3CCN(c4ccccc4OCC)CC3)cc2)C1=O )
Result: 2.34

Query: # get_value(readout='log10(IC50)', item= O=C1NC(=O)/C(=C/c2ccc(N3CCN(c4ccccc4)CC3)cc2)S1 )
Result: 2.61

Query: # get_value(readout='log10(IC50)', item= O=C1S/C(=C\c2ccc(N3CCN(C4CCCCC4)CC3)cc2)C(=O)N1Cc1ccccc1 )
Result: 2.71

Query: # get_value(readout='log10(IC50)', item= C=CCN1C(=O)S/C(=C\c2ccc(N3CCN(C4CCCCC4)CC3)cc2)C1=O )
Result: 3.24

Query: # get_value(readout='log10(IC50)', item= C#CCN1C(=O)S/C(=C\c2ccc(N3CCN(c4ccccc4)CC3)cc2)C1=O )
Result: 3.17

Query: # get_value(readout='log10(IC50)', item= C#CCN1C(=O)S/C(=C\c2ccc(N3CCN(c4ccc(F)cc4)CC3)cc2)C1=O )
Result: 2.58

Query: # get_value(readout='log10(IC50)', item= O=C1NC(=O)/C(=C/c2ccc(N3CCN(C4CCCCC4)CC3)cc2)S1 )
Result: 3.50

* * *

Biological target: Amine oxidase [flavin-containing] A (Homo sapiens, UniProt P21397)
Sequence (P21397 whole entry): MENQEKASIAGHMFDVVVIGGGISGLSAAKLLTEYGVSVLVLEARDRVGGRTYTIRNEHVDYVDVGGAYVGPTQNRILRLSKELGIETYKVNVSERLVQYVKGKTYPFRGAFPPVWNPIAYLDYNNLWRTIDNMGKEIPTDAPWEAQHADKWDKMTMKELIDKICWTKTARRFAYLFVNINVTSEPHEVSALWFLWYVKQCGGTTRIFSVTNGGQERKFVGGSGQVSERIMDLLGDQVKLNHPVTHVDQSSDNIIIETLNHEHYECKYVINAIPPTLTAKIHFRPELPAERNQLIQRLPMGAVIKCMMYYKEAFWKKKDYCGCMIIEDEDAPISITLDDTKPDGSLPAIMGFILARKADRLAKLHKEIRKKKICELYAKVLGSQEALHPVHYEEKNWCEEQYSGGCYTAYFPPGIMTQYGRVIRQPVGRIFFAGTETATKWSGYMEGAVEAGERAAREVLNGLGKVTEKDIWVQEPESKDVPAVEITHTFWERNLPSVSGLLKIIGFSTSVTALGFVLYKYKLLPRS
Assay: Inhibition of human MAO-A using kynuramine as substrate by fluorometric assay
endpoint.name: IC50 (nM)
Give your result in nM as a bare value.

Check out these entries, answers already filled in.
Query: # get_value(readout='IC50', item= C=CCN1C(=O)S/C(=C\c2ccc(N3CCN(c4ccc(F)cc4)CC3)cc2)C1=O )
Result: 1480

Query: # get_value(readout='IC50', item= O=C1S/C(=C\c2ccc(N3CCN(c4ccccc4)CC3)cc2)C(=O)N1Cc1ccccc1 )
Result: 194

Query: # get_value(readout='IC50', item= C=CCN1C(=O)S/C(=C\c2ccc(N3CCN(c4ccccc4OCC)CC3)cc2)C1=O )
Result: 812

Further cases:
Query: # get_value(readout='IC50', item= O=C1S/C(=C\c2ccc(N3CCN(c4ccc(F)cc4)CC3)cc2)C(=O)N1Cc1ccccc1 )
Result: 188

Query: # get_value(readout='IC50', item= C#CCN1C(=O)S/C(=C\c2ccc(N3CCN(C4CCCCC4)CC3)cc2)C1=O )
Result: 1430
